protocolDescription: NCI Yeast Anticancer Drug Screen. Data for the cln2 rad14 strain (AID 165);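 note: 0% = growth equal to vehicle treated cultures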
recordedConditions: S. cerevisiae cln2 rad14 strain, at 50.0 µM, stronger effect = higher value
The panel holds about 79,000 compounds, 15% with a hit somewhere; the sample as a whole holds those more often.
Form field: growth inhibition (one value per entry).
observedProperty: growth inhibition (%)

>  <compound>
CCCCCCCCCCCCCCCCCCCCc1ccccc1

>  <observedProperty>
growth inhibition

>  <observedValue>
12.7

$$$$
>  <compound>
O=[N+]([O-])c1ccc(-c2ccccc2-c2ccccc2)cc1

>  <observedProperty>
growth inhibition

>  <observedValue>
-38.1

$$$$
>  <compound>
S=C1N=C(Cl)C2(NN1)c1ccccc1-c1ccccc12

>  <observedProperty>
growth inhibition

>  <observedValue>
-14.5

$$$$
>  <compound>
[O-]/[N+](=C\c1ccc(Cl)cc1)c1ccccc1

>  <observedProperty>
growth inhibition

>  <observedValue>
-8.85

$$$$
>  <compound>
Cn1c(=O)[nH]c2c(c1=O)CCCS2

>  <observedProperty>
growth inhibition

>  <observedValue>
0.65

$$$$
>  <compound>
COc1ccc(C(=O)c2ccccc2)c(O)c1

>  <observedProperty>
growth inhibition

>  <observedValue>
4.95

$$$$
>  <compound>
[Cl][Bi]([O]c1ccccn1)[O]c1ccccn1

>  <observedProperty>
growth inhibition

>  <observedValue>
17.4

$$$$
>  <compound>
c1ccc2c(-c3cnc(-c4ccc(-c5ncc(-c6cccc7ccccc67)o5)cc4)o3)cccc2c1

>  <observedProperty>
growth inhibition

>  <observedValue>
-52.6

$$$$
>  <compound>
CC(C)N(C(=O)c1cccc([N+](=O)[O-])c1)C(C)C

>  <observedProperty>
growth inhibition

>  <observedValue>
-30.9

$$$$
>  <compound>
CSc1[nH]c2ncnc(Cl)c2c1C#N

>  <observedProperty>
growth inhibition

>  <observedValue>
-21.8

$$$$
>  <compound>
O=C(NN1C(=O)CS(=O)(=O)C1c1ccc(C(F)(F)F)cc1)c1ccncc1 (configuration not stated)

>  <observedProperty>
growth inhibition

>  <observedValue>
8.8

$$$$
>  <compound>
CCCCOC(=O)NC(=O)c1cc2cc(Br)cc(Br)c2oc1=O

>  <observedProperty>
growth inhibition

>  <observedValue>
-7.05

$$$$
